# credit: PubChem BioAssay

Listed compounds paired with reported composite z-score
test system: wheat germ agglutinin (Triticum aestivum), Alexa647-labelled; assay: wheat germ agglutinin binders on compound microarrays, profiling panel, artefact control for SMM control-protein annotation, biochemical, small-molecule microarray, 635/667 nm fluorescence (AID 1140); conditions: WGA-A647 binding, 635 nm fluorescence, higher = more signal;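 also: score merges 667 nm feature emission with signal to noise over triplicate slides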
The answer should be written as a number, with no unit following it.

# count of solved cases: 3
compound=O=C1O[C@H](c2ccccc2)[C@H](c2ccccc2)N2[C@H]1[C@@H](C(=O)O)[C@]1(C(=O)Nc3ccc(C#CC4=CCCCC4)cc31)[C@H]2c1ccc(O)cc1 assay_result=0.362
compound=COCCOC(=O)N1C(=O)[C@@]2(c3cc(C#CCC(C(=O)OC)C(=O)OC)ccc31)[C@H](C(=O)N1CCc3cc(OC)c(OC)cc3C1)[C@H]1C(=O)O[C@H](c3ccccc3)[C@H](c3ccccc3)N1[C@@H]2c1ccc(OCCO)cc1 assay_result=0.519
compound=COCCOC(=O)N1C(=O)[C@@]2(c3cc(C#CC4=CCCCC4)ccc31)[C@H](C(=O)N1CCCCCCC1)[C@H]1C(=O)O[C@H](c3ccccc3)[C@H](c3ccccc3)N1[C@@H]2c1ccc(O)cc1 assay_result=0.436

Continue with the next compound.
Hello, I am looking for reported composite z-score with wheat germ agglutinin (Triticum aestivum), Alexa647-labelled for O=C1C=C(c2ccccc2)C(=O)c2ccc([C@H]3Oc4ccccc4S(=O)(=O)N4CCC[C@@H]34)cc21 . Could you help?
-0.0704

====

target: Dihydroorotate dehydrogenase (quinone), mitochondrial (Plasmodium falciparum (isolate 3D7)); test: PfDHODH enzyme inhibitors, primary screen, biochemical, C-terminal His tag, absorbance 600 nm (AID 1175); conditions: DCIP absorbance 600 nm, higher = more signal, called active from +8 up or from −8 down;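 also: recombinant parasite enzyme with a five histidine tag at its C terminus; test concentration not given here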
Parameter: composite z-score. Scope: all listed entries.
Give only the figure.

Example results:
molecule=COc1ccc(-c2nc(-c3ccccc3)c3c(c2C)CO[Si]3(C(C)C)C(C)C)cn1 parameter="composite z-score" assay_result=0.366
molecule=COC(=O)[C@@]1(Cc2ccccc2N=[N+]=[N-])N=C(c2ccc(OCCCO)cc2)O[C@H]1c1ccccc1N=[N+]=[N-] parameter="composite z-score" assay_result=-0.071
molecule=COc1cc(CO)cc(I)c1O[C@H]1C=C(C(=O)NCCO)C[C@@H](NCc2ccc(F)cc2)[C@@H]1O parameter="composite z-score" assay_result=0.969
molecule=CCCNC(=O)[C@@H]1c2ccccc2C(=O)N(C(C)C)[C@H]1c1ccc(CO)cc1 parameter="composite z-score" assay_result=-0.185
molecule=C=CC[C@]1(C(=O)O)COC(c2ccc(OCCCO)cc2)=N1 parameter="composite z-score" assay_result=0.146

I would be grateful if you could share the reported composite z-score for CC(C)(C)OC(=O)CC[C@@]1(C(=O)NCc2ccccc2)N=C(c2ccc(OCCCO)cc2)O[C@@H]1c1ccccc1N=[N+]=[N-] .
1.45

composite z-score lookup needed for COc1ccc(NC(=O)O[C@H]2[C@H](OC(=O)Nc3ccccc3)[C@@H](OC(=O)Nc3ccccc3)[C@@H](OC)O[C@@H]2CO)cc1 , thanks.
1.1

Give its composite z-score value. Item: CCCC[C@@H]1C[C@H]1[C@@H](NC(=O)Cc1ccccc1)c1ccc(-c2ccccc2)cc1
0.183

====

test system: Human papillomavirus type 1a E7 protein (residues 1-88); assay: HPV1a E7 small-molecule binders, primary screen, biochemical, small-molecule microarray, residues 1-88, 635 nm (AID 1129); conditions: small-molecule microarray binding, fluorescence 635 nm; higher = more signal
Quick reference: composite z-score of the listed items.
Number only, no unit.

Worked cases, composite z-score given:
compound=C[C@@H]1ON(c2ccc(C(=O)OC(C)(C)C)cc2)[C@H](c2ccc(O)cc2)[C@H]1C(=O)N1C(=O)OC[C@H]1Cc1ccccc1 parameter="composite z-score" assay_result=1.03
compound=C=CCOC(=O)[C@H]1[C@@H]2C(=O)O[C@@H](c3ccccc3)[C@@H](c3ccccc3)N2[C@@H](c2ccc(OCCOC(=O)[C@@H]3C[C@@H]4C(=O)N[C@@H](CCCCNC(C)=O)C(=O)N4[C@@H]3c3ccc(O)cc3)cc2)[C@]12C(=O)Nc1ccc(I)cc12 parameter="composite z-score" assay_result=1.21
compound="O=C1NC(=O)C2C1C=CC(C(O)c1cccc3ccccc13)N2Nc1ccc(Cl)cc1Cl (centres undefined)" parameter="composite z-score" assay_result=1.16

Here's the next entry for you.
Which composite z-score value is on record for CCOC(=O)C[C@H]1[C@H](OC(=O)c2cc3ccccc3oc2=O)[C@@H](NC(=O)c2ccc(-c3ccccc3)cc2)c2cc(OCCCO)ccc2N1C(=O)c1ccc2ccccc2n1 ?
1.15

====

tested on: Inhibin beta A chain (activin A); assay: INHBA (activin A) binders on microarrays, primary screen, biochemical, small-molecule microarray, 635 nm fluorescence scan (AID 1107); conditions: small-molecule microarray binding, higher = more signal;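 also: mouse activin A protein probed at 4.33 µg/mL on printed slides; score merges bound-protein fluorescence near 667 nm with spot signal-to-noise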
Parameter: composite z-score. Scope: all listed entries.
I'd appreciate a reply containing only the number, no unit.

Take a look at these entries with their results.
molecule="CC(C)(C)OC(=O)CC[C@]1(C(=O)NCC(O)CO)N=C(c2ccc(OCCCO)cc2)O[C@H]1c1ccccc1 (stereo partly drawn)" assay_result=-0.0014
molecule=CCCNC(=O)[C@@]1(c2ccc([N+](=O)[O-])cc2)CC(=O)N(C2CCCCC2)[C@@H]1c1ccc(CO)cc1 assay_result=0.254
molecule=COc1cc(CO)cc(I)c1O[C@H]1C=C(C(=O)NCCO)C[C@@H](NCc2ccc(F)cc2)[C@@H]1O assay_result=-0.144
molecule=O=C1C=C(c2ccccc2)C(=O)c2ccc([C@H]3Oc4ccccc4S(=O)(=O)N4CCC[C@@H]34)cc21 assay_result=1.04
molecule=C=CC[C@]1(C(=O)NCCN2CCOCC2)N=C(c2ccc(OCCCO)cc2)O[C@H]1c1ccccc1CN=[N+]=[N-] assay_result=1.57
molecule=CC(C)C[C@@H]1NC(=O)[C@@H]2C[C@H](C(=O)NCCCCCN)[C@H](c3ccc(O)cc3)N2C1=O assay_result=0.585
molecule="[N-]=[N+]=Nc1ccccc1[C@@H]1OC(c2ccc(OCCCO)cc2)=N[C@]1(Cc1ccccc1)C(=O)NCC(O)CO (stereo partly drawn)" assay_result=1.09

// next item, composite z-score requested
Recorded composite z-score of CC1CC/C=C\[C@H]2OC34C=CCN(c5ccc(Cl)cc5)C(=O)[C@H]3N(CCCCCO)C(=O)[C@]4(C)C2C(=O)O1 (stereo partly drawn) , please.
-0.497

====

test system: Sonic hedgehog protein (Shh); assay: small-molecule binders of Shh protein, primary screen, biochemical, small-molecule microarray, 635/667 nm fluorescence (AID 1151); conditions: small-molecule microarray binding, 635 nm fluorescence; higher = more signal;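 also: Shh protein binding to compounds spotted on small-molecule microarray slides; score combines spot fluorescence intensity with signal-to-noise across triplicate slides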
parameter: composite z-score

Examples with their reported composite z-score follow.
compound=CC(C)Cc1ccc(CN2CC[C@@H](NC(=O)Nc3ccccc3)C2)cc1 target_or_test_system="Sonic hedgehog protein (Shh)" assay_result=0.826
compound=O=C(NCCCCCNC(=O)/C(Cc1ccccc1)=N/O)OCc1ccccc1 target_or_test_system="Sonic hedgehog protein (Shh)" assay_result=-0.103
compound=O=C1O[C@@H](c2ccccc2)[C@@H](c2ccccc2)N2[C@@H](c3ccc(O)cc3)[C@]3(C(=O)Nc4ccc(C#CC5=CCCCC5)cc43)[C@@H](C(=O)NC[C@H](O)c3ccccc3)[C@H]12 target_or_test_system="Sonic hedgehog protein (Shh)" assay_result=1.48

Moving on to another compound below.
Please report the recorded composite z-score for COc1ccc(C(O)C2C=CC3C(=O)N(c4ccccc4)C(=O)C3N2Nc2ccc([N+](=O)[O-])cc2)cc1 (centres undefined) .
-0.397

====

test: basal HepG2 mitochondrial membrane potential changes, profiling panel, cell-based, JC-1 fluorescence, 24 h, 100 nL compound (AID 1167); conditions: higher = more signal; also: test concentration not given here
parameter: z-score
// no unit, no text: just the number

Solved entries (count: 2):
molecule=CCCC[C@@H](O)C1=C(COc2ccccc2)C[C@H]2C(=O)N(C)C(=O)[C@H]2[C@H]1CO assay_result=1.11
molecule=O=C(NCC(F)(F)F)[C@@H]1c2ccccc2C(=O)N(Cc2ccccc2C(F)(F)F)[C@H]1c1ccc(CO)cc1 assay_result=0.277

What measured z-score goes with COc1ccc([Si](C)(C)[C@H]2[C@H](CC(=O)N(CCO)Cc3ccccc3)O[C@@]3(C(=O)N(Cc4cccc(N5CCOC5=O)c4)c4ccccc43)[C@@H]2C)cc1 ?
0.917

Requested field: z-score. Item: COc1ccc([Si](C)(C)[C@H]2[C@H](CCn3cc([C@H](O)c4ccccc4)nn3)O[C@@]3(C(=O)N(Cc4ccc(N5C(=O)c6cccc7cccc5c67)cc4)c4ccccc43)[C@@H]2C)cc1
1.58

What value of z-score has been reported for the following molecule? C=CCC(OC(C)=O)[C@@H]1[C@@H](N(Cc2ccc(-c3cccc(C(F)(F)F)c3)o2)C(=O)c2ccc(-c3ccccc3)cc2)c2cc(OCCCO)ccc2N1C(=O)c1ccc2ccccc2n1 (stereo partly specified)
2.07

Could you tell me which z-score is on file for COC1OC[C@]2(C)[C@H]3C4=C(CN2C(=O)OC(C)(C)C)[C@H](C)C(CO)C(CO)C4CC[C@@H]13 (stereo partly specified) ?
2.82
